Ref: patent US7265152B2

Each entry below lists one item and its recorded EC50 value.
- Test system: HCV replicon (BB7 sequence) in Huh-7-Clone A cells
- run description: HCV replicon assay: ELISA of NS5A protein in replicon-containing cells (Inhibition of Viral RNA Replication)
- Assay type: cell-based
- condition summary: Hepatitis C virus; HCV replicon assay; ranges of EC50; read-out: Replicon

CNC(=O)c1c(-c2ccc(F)cc2)oc2cc(N(C)S(C)(=O)=O)c(OCC(=O)c3ccc(OC)cc3)cc12	< 1 µM

QUERY: Looking for the measured EC50 of `COc1cc2c(C(=O)NC(C)C)c(-c3ccc(F)cc3)oc2cc1-c1c(C)noc1C` , can you help?
RESULT: > 30 µM

QUERY: May I ask what EC50 has been recorded for `CCc1cc2c(C(=O)NC)c(-c3ccc(F)cc3)oc2cc1C(C)=O` ?
RESULT: < 1 µM

QUERY: Item `CNC(=O)c1c(-c2ccc(F)cc2)oc2ccc(OCc3ccc(C(=O)O)cc3)cc12` has what recorded EC50?
RESULT: < 30 µM

* * *

Entries and their EC50 values follow.
- Test system: HCV replicon (BB7 sequence) in Huh-7-Clone A cells
- run description: HCV replicon assay: ELISA of NS5A protein in replicon-containing cells (Inhibition of Viral RNA Replication)
- Assay type: cell-based
- condition summary: Hepatitis C virus; HCV replicon assay; ranges of EC50; read-out: Replicon

CNC(=O)c1c(-c2ccc(F)cc2)oc2cc(-c3c(COC)noc3C3CC3)c(OC)cc12	< 1000 nM

QUERY: Reported EC50, molecule `CNC(=O)c1c(-c2ccc(F)cc2)oc2cc(-c3cn[nH]c3C)c(OC(C)C)cc12` : ____
RESULT: < 1000 nM

QUERY: So what does the record say about EC50 for CNC(=O)c1c(-c2ccc(F)cc2)oc2cc(C(C)NC)c(OC)cc12 (centres unmarked) ?
RESULT: > 30000 nM

QUERY: Which EC50 reading was recorded for the molecule `CCOc1cc(F)ccc1-c1oc2cc(-c3c(C)noc3C)c(OC)cc2c1C(=O)NC` ?
RESULT: > 30000 nM

QUERY: Entry `COc1cc2c(C(=O)NC3CC3)c(-c3ccc(F)cc3)oc2cc1-c1c(C)noc1C` : reported EC50 = ?
RESULT: < 1000 nM

* * *

- target entity: HCV NS5B (Hepatitis C virus genotype 1b)
- Construct: fusion protein, of which the carboxyl terminal 21 amino acids were removed to enhance its solubility; His tag (GSHHHHHH); made in house; host or cells: E. coli
- run description: Inhibition of viral RNA-dependent RNA polymerase (RdRp), in vitro biochemical assay
- Design: species or system HCV genotype 1b virus (BB7)
- condition summary: HCV NS5B RdRp, BB7; reported as range class; read-out: HCV pol-BB7 IC50
measurement label: IC50

CNC(=O)c1c(-c2ccc(F)cc2)oc2cc(N3CCOCC3)c(OCc3noc(-c4ccc(OC)cc4)n3)cc12 [Example 214]	500 to 5000 nM
CNC(=O)c1c(-c2ccc(F)cc2)oc2cc(N3CCOCC3)c(OCCCl)cc12 [Example 180]	≤ 500 nM
CNC(=O)c1c(-c2ccc(F)cc2)oc2cc(-c3cc(C)no3)c(OC(C)C)cc12 [Example 233]	≤ 500 nM
CNC(=O)c1c(-c2ccc(F)cc2)oc2cc(N3CCOCC3)c(OCCOC)cc12 [Example 226]	≤ 500 nM

QUERY: So what does the record say about IC50 for CNC(=O)c1c(-c2ccc(F)cc2)oc2cc(N3CCOCC3)c(OC(C)c3ccc(F)cc3)cc12 (centres unmarked) [Example 212] ?
RESULT: ≤ 500 nM

* * *

- target entity: HCV NS5B (Hepatitis C virus genotype 1b)
- Construct: fusion protein, of which the carboxyl terminal 21 amino acids were removed to enhance its solubility; His tag (GSHHHHHH); made in house; host or cells: E. coli
- run description: Inhibition of viral RNA-dependent RNA polymerase (RdRp), in vitro biochemical assay
- Set-up: species or system HCV genotype 1b virus (BB7)
- condition summary: HCV NS5B RdRp, BB7; class symbols A-D; read-out: HCV pol-BB7 IC50
measurement label: IC50

QUERY: Query the reported IC50 for HCV NS5B (Hepatitis C virus genotype 1b); item: `CNC(=O)c1c(-c2ccc(F)cc2)oc2cc(N3CCOCC3)c(OCc3cccc(C(=O)O)c3)cc12`
RESULT: ≤ 500 nM

QUERY: # returns recorded IC50 (system: HCV NS5B (Hepatitis C virus genotype 1b)) for `CNC(=O)c1c(-c2ccc(F)cc2)oc2cc(-c3cc(COC)on3)c(OC(C)C)cc12`
RESULT: ≤ 500 nM

QUERY: # get_value(readout= IC50, system= HCV NS5B (Hepatitis C virus genotype 1b)) for `CNC(=O)c1c(-c2ccc(F)cc2)oc2cc(N(C)S(C)(=O)=O)c(Oc3nc(CCl)ns3)cc12`
RESULT: ≤ 500 nM

QUERY: Param readout = IC50; param system = HCV NS5B (Hepatitis C virus genotype 1b); param query = `CNC(=O)c1c(-c2ccc(F)cc2)oc2cc(N3CCOCC3)c(OCc3ccc4c(c3)C(=O)OC(C)(C)O4)cc12` ; response: value
RESULT: 500 to 5000 nM

* * *

Reported pIC50 by item:
- target entity: HCV NS5B (Hepatitis C virus genotype 1b, UniProt Q9WMX2)
- Construct: fusion protein, of which the carboxyl terminal 21 amino acids were removed to enhance its solubility; His tag (GSHHHHHH); made in house; host or cells: E. coli
- run description: Inhibition of viral RNA-dependent RNA polymerase (RdRp), in vitro biochemical assay
- Set-up: species or system HCV genotype 1b virus (BB7)
- condition summary: HCV NS5B RdRp, BB7 genotype 1b; read-out: HCV pol-BB7 IC50
pIC50: −log10 of the molar value.

Please review the following examples before continuing.
CNC(=O)c1c(-c2ccc(F)cc2)oc2cc(N(CCO)S(C)(=O)=O)c(OC(C)C)cc12 [Example 164]	≥ 6.30
CNC(=O)c1c(-c2ccc(F)cc2)oc2cc(N3CCOCC3)c(OCc3ccccc3)cc12 [Example 117]	≥ 6.30
CCNC(=O)c1c(-c2ccccc2)oc2ccc(OC)cc12 [Example 130]	4.52 to 5.30
CNC(=O)c1c(-c2ccc(C#N)cc2)oc2ccc(OC(C)C)cc12 [Example 106]	5.30 to 6.30
CNC(=O)c1c(-c2occc2C)oc2ccc(OC(C)C)cc12 [Example 121]	5.30 to 6.30
CNC(=O)c1c(-c2ccc(F)cc2)oc2cc(C(N)=O)c(OC(C)C)cc12 [Example 146]	5.30 to 6.30
CNC(=O)c1c(-c2ccc(F)cc2)oc2cc(N3CCN(C)CC3)c(OC(C)C)cc12 [Example 132]	4.52 to 5.30
CNC(=O)c1c(-c2ccc(F)cc2)oc2cc(NS(=O)(=O)CCCCl)c(OC(C)C)cc12 [Example 133]	5.30 to 6.30
CNC(=O)c1c(-c2ccc(F)cc2)oc2cc(-c3ccco3)c(OC(C)C)cc12 [Example 151]	≥ 6.30
CNC(=O)c1c(-c2ccc(F)cc2)oc2cc(Nc3ccncc3)c(OC(C)C)cc12 [Example 131]	5.30 to 6.30

QUERY: # input molecule: CCS(=O)(=O)Nc1cc2oc(-c3ccc(F)cc3)c(C(=O)NC)c2cc1OC(C)C [Example 156] ; wanted: its pIC50
RESULT: ≥ 6.30

QUERY: Name the reported pIC50 value associated with the molecule C=Cc1cc2oc(-c3ccc(F)cc3)c(C(=O)NC)c2cc1OC(C)C [Example 157]
RESULT: ≥ 6.30

QUERY: Sample CNC(=O)c1c(-c2ccc(F)cc2)oc2cc(N3CCC3)c(OC(C)C)cc12 [Example 109] — what was its pIC50?
RESULT: ≥ 6.30
